The compounds listed here are annotated with their Km.
study-target: GtfE (Amycolatopsis orientalis, UniProt Q9AFC6)
Construct: made in house; host or cells: Escherichia coli
Sequence (Q9AFC6 1-409): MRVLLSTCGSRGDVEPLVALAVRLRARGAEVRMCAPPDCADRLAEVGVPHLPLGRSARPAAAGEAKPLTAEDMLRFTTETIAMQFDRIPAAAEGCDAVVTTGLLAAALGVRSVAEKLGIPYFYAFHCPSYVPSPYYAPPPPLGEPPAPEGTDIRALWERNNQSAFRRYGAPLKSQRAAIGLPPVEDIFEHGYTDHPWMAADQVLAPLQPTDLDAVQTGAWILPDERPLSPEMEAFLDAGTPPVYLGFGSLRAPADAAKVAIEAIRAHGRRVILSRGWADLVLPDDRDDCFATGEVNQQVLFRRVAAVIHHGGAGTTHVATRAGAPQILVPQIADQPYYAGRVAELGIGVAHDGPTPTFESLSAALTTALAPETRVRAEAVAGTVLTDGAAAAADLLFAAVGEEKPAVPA
experiment-notes: GtfE steady-state kinetics and transfer of NDP-glucose derivatives to heptapeptide aglycone
Format: biochemical
measurement-setup: NDP-sugar donor varied; acceptor vancomycin aglycone held at 1 mM; pH 9
Description: (The acceptor substrate, the vancomycin aglycone, was held constant at 1 mM in each experiment.) Biochemistry 2001; 40(15):4745-55; and Solenberg et al. Production of hybrid glycopeptide antibiotics in vitro and in Streptomyces toyocaensis. Chem Biol 1997; 4(3):195-202. Reactions were carried out and analyzed by HPLC as previously described. […] The molecular weight of new products was analyzed by Maldi-TOF mass spectrometry using a Perseptive Biosystems Voyager-DE STR mass spectrometer. […]
Give your result in µM as a bare value.

The cases that follow already have their Km on record.
compound	study-target	unit-abbreviation	Km
NC[C@H]1O[C@H](OP(=O)(O)OP(=O)(O)OC[C@H]2O[C@@H](n3ccc(=O)[nH]c3=O)[C@H](O)[C@@H]2O)[C@H](O)[C@@H](O)[C@@H]1O	GtfE (Amycolatopsis orientalis, UniProt Q9AFC6)	µM	1200
O=c1ccn([C@@H]2O[C@H](COP(=O)(O)OP(=O)(O)O[C@H]3O[C@H](CCl)[C@@H](O)[C@H](O)[C@H]3O)[C@@H](O)[C@H]2O)c(=O)[nH]1	GtfE (Amycolatopsis orientalis, UniProt Q9AFC6)	µM	21000
Cc1cn([C@H]2C[C@H](O)[C@@H](COP(=O)(O)OP(=O)(O)O[C@H]3O[C@H](CO)[C@@H](O)[C@H](O)[C@H]3O)O2)c(=O)[nH]c1=O [TDP-glucose, reference compound]	GtfE (Amycolatopsis orientalis, UniProt Q9AFC6)	µM	620
Cc1cn(C2CC(O)C(COP(=O)(O)OP(=O)(O)OC3OC(CO)C(O)C(N)C3O)O2)c(=O)[nH]c1=O (stereo not drawn)	GtfE (Amycolatopsis orientalis, UniProt Q9AFC6)	µM	720
NC1C(OP(=O)(O)OP(=O)(O)OCC2OC(n3ccc(=O)[nH]c3=O)C(O)C2O)OC(CO)C(O)C1O (stereo not drawn)	GtfE (Amycolatopsis orientalis, UniProt Q9AFC6)	µM	790

Now turn to the next compound.
Problem: Record request: Km value, item Cc1cn([C@H]2C[C@H](O)[C@@H](COP(=O)(O)OP(=O)(O)O[C@H]3O[C@H](CO)[C@@H](N)[C@H](O)[C@H]3O)O2)c(=O)[nH]c1=O
Result: 1100

These data points were gathered from patent US8198419B2.
